assay: solvent given as SMILES; conditions: in ClCCl
Output fulfilled for absorption maximum not less than 400 nm; output not fulfilled otherwise.

Solved entries:
| Given Smiles | Discrete Label |
| --- | --- |
| CCCCCCCCCCCCN1C(=O)c2c(c3ccc4cc(-c5ccccc5)c(OC)cc4c3c3c2ccc2cc(-c4ccccc4)c(OC)cc23)C1=O | fulfilled |
| Cc1cc(C)n2c1C=[N+]1[N+](=C3C=NC=CN3[B-]1(F)F)[B-]2(F)F | fulfilled |
| CCN(CC)c1ccc2nc3c4ccccc4c(=O)cc-3oc2c1 | fulfilled |

Check this compound for absorption maximum at or above 400 nm: `O=[N+]([O-])c1ccc(-c2nc3c(c4c2-c2ccccc2CC4)-c2ccccc2CC3)cc1`
not fulfilled

----------
For each entry below, report its absorption maximum value.
assay: solvent given as SMILES; conditions: in CC#N
One number for each entry, in nm.

| Molecule | Unit Info | absorption maximum |
| --- | --- | --- |
| Oc1ccc2ccccc2c1/C=N/C1CCCCC1/N=C/c1c(O)ccc2ccccc12 (centres undefined) | nm | 397 |
| Cn1nc(-c2ccccc2)c2n[nH]nc2/c1=N\c1ccccn1 | nm | 402 |

Give me absorption maximum for each of these molecules, listed below.
1. CN(C)c1cc(C#N)c(N(C)C)c(C#N)c1
2. CCN(CC)c1ccc(/C=N/c2cc3ccccc3cc2/N=C/c2ccc(N(CC)CC)cc2O)c(O)c1

[390.93, 403]

----------
assay: solvent given as SMILES; settings: in CS(C)=O
Output Y for absorption maximum not less than 400 nm; output N otherwise.

Solved entries:
| Compound | Discrete Label |
| --- | --- |
| CCOC(=O)CN1C(=O)C2=C(c3ccccc3)N(CC(=O)OCC)C(=O)C2=C1c1ccccc1 | Y |
| CCOc1ccc2cc(-c3ccc(C)cc3)c(=O)oc2c1 | N |
| CC1(C)c2ccccc2N(c2ccc(-c3nnc(-c4ccccc4O)o3)cc2)c2ccccc21 | N |
| COc1cc(OC)cc(C2=C3C(C)=C(I)C(C)=[N+]3[B-](F)(F)n3c(C)c(I)c(C)c32)c1 | Y |
| Cc1ccc2oc(-c3cc4cc(C)ccc4oc3=O)cc2c1 | N |

Check this compound for absorption maximum at or above 400 nm: Cc1ccc(C2CC(c3ccc(O)cc3)=NN2c2ccc(S(N)(=O)=O)cc2)cc1 (configuration not stated)
N

Check this compound for absorption maximum at or above 400 nm: `O=C1/C(=C2\Sc3ccccc3C2=O)Sc2ccccc21`
Y

----------
assay: solvent given as SMILES; conditions: in C1CCOC1
Output met for absorption maximum not less than 400 nm; output not met otherwise.

Solved entries:
| Given Smiles | Discrete Label |
| --- | --- |
| F[B-]1(F)n2c(/C=C/c3ccc(C(=C(c4ccccc4)c4ccccc4)c4ccccc4)cc3)ccc2C(c2ccccc2)=C2C=CC(/C=C/c3ccc(C(=C(c4ccccc4)c4ccccc4)c4ccccc4)cc3)=[N+]21 | met |
| F[B-]1(F)OC(c2ccc(C(F)(F)F)cc2)=Cc2cc(Cl)nc[n+]21 | not met |
| CC(C)(C)c1ccc2c(c1)c1cc(C(C)(C)C)ccc1n2-c1ccc(-c2nc(-c3ccc(P(=O)(c4ccccc4)c4ccccc4)cc3)nc(-c3ccc(P(=O)(c4ccccc4)c4ccccc4)cc3)n2)cc1 | not met |

# next molecule below
Check this molecule for absorption maximum at or above 400 nm: `C(=C1c2ccccc2CCc2ccccc21)c1ccc(-c2cc(-c3ccc(C=C4c5ccccc5CCc5ccccc54)cc3)cc(-c3ccc(C=C4c5ccccc5CCc5ccccc54)cc3)c2)cc1`
not met

----------
experiment: solvent given as SMILES; conditions: in O
For each entry below, report its absorption maximum value.
Answers are plain numbers, in nm.

| Given Smiles | Unit Info | absorption maximum |
| --- | --- | --- |
| CC(=O)Nc1ccc2c(c1)c(=O)c1ccccc1n2CCCCCC(=O)O | nm | 398 |
| Cn1c2ccccc2c(=O)c2ccccc21 | nm | 394 |

Then there is this compound:
Give its absorption maximum value. Item: `Fc1cc(F)c2cc3cccc[n+]3cc2c1`
407

----------
For each entry below, report its absorption maximum value.
experiment: solvent given as SMILES; details: in ClC(Cl)Cl
Answers are plain numbers, in nm.

Below, 2 molecules whose answers are already recorded.
| Given Smiles | absorption maximum, nm |
| --- | --- |
| CC1=CC(C)=[N+]2C1=C(c1ccc3cccnc3n1)c1c(C)cc(C)n1[B-]2(F)F | 509 |
| CCCCOC(=O)/C(C#N)=C1\C(=CC2=[N+](C)c3ccccc3C2(C)C)C([O-])=C1C=C1N(C)c2ccccc2C1(C)C | 691 |

Give its absorption maximum value. Item: `O=Cc1cc(O)ccc1O`
362

----------
test: solvent given as SMILES; conditions: in ClCCl
Output T for absorption maximum not less than 400 nm; output F otherwise.

Solved entries:
| Compound | Discrete Label |
| --- | --- |
| CN(C)c1ccc2cc(C(/C=C/c3cn(C)c4ccccc34)=C(C#N)C#N)c(=O)oc2c1 | T |
| CCN(CC)c1ccc2c(-c3ccccc3C(=O)O)c3c([o+]c2c1)/C(=C/c1ccc(N(C)C)cc1)CCC3 | T |

# next compound below
Check this compound for absorption maximum at or above 400 nm: `F[B-]1(F)OC(c2ccccc2)=Nc2sc(-c3ccccc3)n[n+]21`
F

----------
assay: solvent given as SMILES; settings: in Cc1ccccc1
Assay Endpoint: absorption maximum
I'd appreciate it if you included the unit after the number.

Give me absorption maximum for each of these compounds, listed below.
1. CCCCCCCCCCCCCCCC[n+]1ccc(/C=C/c2ccccc2O)cc1
2. COc1ccc(N(c2ccc(OC)cc2)c2cc3ccc4cc(B(c5c(C)cc(C)cc5C)c5c(C)cc(C)cc5C)cc5ccc(c2)c3c45)cc1
3. CCCN1/C(=C\c2c(-c3ccc(N(C)C)cc3)c(=O)c2=O)C=Cc2ccccc21

1. 554.2 nm
2. 402 nm
3. 362 nm

----------
For each entry below, report its absorption maximum value.
test: solvent given as SMILES; settings: in Cc1ccccc1
One number for each entry, in nm.

| Compound | Readout Value |
| --- | --- |
| CN(C)c1cc(C#N)c(N(C)C)c(C#N)c1 | 395.26 |
| COc1cc2c3c4c(c5ccc(C(C)(C)C)cc5c5c(OC)cc(OC)c(c2c(OC)c1OC)c45)=[N+]1C3=Nc2c3c4cc(OC)c(OC)c(OC)c4c4c(OC)cc(OC)c5c6cc(C(C)(C)C)ccc6c(c3c54)n2[B-]1(F)F | 878 |
| CCCCc1ccc(-n2c3c4cc(F)ccc4nnc3c3c2c2nnc4ccc(F)cc4c2n3-c2ccc(CCCC)cc2)cc1 | 315 |
| c1ccc2cc(-n3c4ccccc4c4ccccc43)ccc2c1 | 319 |
| O=C1c2ccccc2S(=O)(=O)c2ccc(-n3c4ccccc4c4ccccc43)cc21 | 404 |
| CCC1=C(C)C2=Cc3c4ccccc4c4n3[B-](c3ccncc3)(Oc3ccccc3-4)[N+]2=C1C=Cc1ccc(OC)cc1 (configuration not stated) | 703 |
| CC(C)(C)c1ccc(-c2nc3c4ccccc4c4ccccc4c3n2-c2ccc(C(C)(C)C)cc2)cc1 | 316 |
| c1ccc(-c2nc(-c3ccccc3)nc(-c3ccc(-n4c5ccccc5c5cc(-c6ccc7oc8ccccc8c7c6)ccc54)cc3)n2)cc1 | 370 |

Give me absorption maximum for each of these compounds, listed below.
1. CCCCCCOc1ccc(N(c2ccc(OCCCCCC)cc2)c2ccc(-c3sc(-c4ccc(N(c5ccc(OCCCCCC)cc5)c5ccc(OCCCCCC)cc5)cc4)c4nc(-c5ccccc5)c(-c5ccccc5)nc34)cc2)cc1
2. O=C(c1ccc(N2c3ccccc3Oc3ccccc32)cc1)c1cccc(C(=O)c2ccc(N3c4ccccc4Oc4ccccc43)cc2)c1
3. CC(C)(C)c1cc(C(C)(C)C)c(-c2nnc(-c3ccc(-n4c5ccccc5c5ccccc54)cc3)o2)c(C(C)(C)C)c1
4. CCCCCCCCCCCCCCCCCC(=O)Oc1cc2[nH]c(cc2CCOC)c2nc(ccc3[nH]c(cc3CCOC)c3nc1C(CCOC)=C3)C(CCOC)=C2
5. c1ccc([B-]2(c3ccccc3)Oc3ccc4ccccc4c3-c3c4ccccc4nc[n+]32)cc1
6. CCC1(CC)c2ccccc2-c2c1c1c(c3c2C(CC)(CC)c2cc(N(c4ccccc4)c4ccccc4)ccc2-3)C(CC)(CC)c2ccccc2-1

1: 600; 2: 416; 3: 340; 4: 646; 5: 451; 6: 360

Give me absorption maximum for each of these compounds, listed below.
1. Cc1cc(-c2nc(-c3ccccc3)nc(-c3ccccc3)n2)cc(C)c1N1c2ccccc2CCc2ccccc21
2. CCn1c2ccccc2c2cc(C#Cc3cc(C#Cc4ccc5c(c4)c4ccccc4n5CC)ncn3)ccc21

1: 392.74; 2: 383

Give its absorption maximum value. Item: `c1ccc(-c2nc(-c3ccccc3)nc(-c3ccc(-n4c5ccccc5c5c6c(ccc54)-c4ccccc4C6(c4ccccc4)c4ccccc4)cc3)n2)cc1`
372
